Origin of measurements: the supplement of paper PMC8975748

System: Saccharomyces cerevisiae BY4741 SeMeCo community
Assay: z-score of subpopulation abundance vs DMSO median, subpopulation auxotrophic for UM; higher = larger share of this subpopulation than in DMSO controls
Conditions: 10 µM; 24 h; SM minimal medium; subpopulation (auxotrophy): UM
Counter-ions that a name gives are not always drawn.
Note to self: values exactly at 0.2 are Fulfilled. So z-score of subpopulation abundance at or above 0.2 is Fulfilled, below is Not fulfilled.

Worked examples, 5 molecules total:
# bool: z-score of subpopulation abundance of C#C[C@]1(O)CC[C@H]2[C@@H]3CCc4cc(O)ccc4[C@H]3CC[C@@]21C [Ethinyl Estradiol] >= 0.2 Not fulfilled

I'd appreciate it if you could say whether NC(=O)c1cnccn1 [Pyrazinamide] has z-score of subpopulation abundance at least equal to 0.2. Fulfilled

Is it the case that CC(C)(C)C1CCC(CC2=C(O)c3ccccc3C(=O)C2=O)CC1 (stereo not given) [Buparvaquone] has z-score of subpopulation abundance reaching or exceeding 0.2? Fulfilled

z-score of subpopulation abundance >= 0.2 for COc1ccc2cc([C@H](C)C(=O)O)ccc2c1 [Naproxen] ? Not fulfilled

Could you tell me if the measured z-score of subpopulation abundance of CC1(C)S[C@@H]2[C@H](NC(=O)[C@H](N)c3ccc(O)cc3)C(=O)N2[C@H]1C(=O)O [Amoxicillin trihydrate] reaches 0.2 or more? Not fulfilled

New cases:
Is the recorded value of z-score of subpopulation abundance equal to or greater than 0.2 for this molecule? NC12CC3CC(CC(C3)C1)C2 [Amantadine] Not fulfilled

Item O=C1CN2Cc3c(ccc(Cl)c3Cl)N=C2N1 [Anagrelide HCl] with z-score of subpopulation abundance of 0.2 or above? Fulfilled

Please tell me: is the molecule CCc1cc(C(N)=S)ccn1 [Ethionamide] at or over 0.2 in terms of z-score of subpopulation abundance? Fulfilled

Decide: is the reported value of z-score of subpopulation abundance for C[C@@H](O)[C@H]1C(=O)N2C(C(=O)O)=C(S[C@@H]3CN[C@H](C(=O)N(C)C)C3)[C@H](C)[C@H]12 [Meropenem Trihydrate] equal to or greater than 0.2? Not fulfilled

Decide: is the reported value of z-score of subpopulation abundance for OCCN(CCO)c1nc(N2CCCCC2)c2nc(N(CCO)CCO)nc(N3CCCCC3)c2n1 [Dipyridamole] equal to or greater than 0.2? Not fulfilled

* * *

System: Saccharomyces cerevisiae BY4741 SeMeCo community
Test: z-score of subpopulation abundance vs DMSO median, subpopulation auxotrophic for UM; higher = larger share of this subpopulation than in DMSO controls
Conditions: 10 µM; 24 h; SM minimal medium; subpopulation (auxotrophy): UM
Recorded z-score of subpopulation abundance, one value per entry.

Example cases with answers are listed next.
Supply recorded z-score of subpopulation abundance for CCN1CCN(C(=O)N[C@@H](C(=O)N[C@@H]2C(=O)N3C(C(=O)O)=C(CSc4nnnn4C)CS[C@H]23)c2ccc(O)cc2)C(=O)C1=O here. 0.26

Quickly give me recorded z-score of subpopulation abundance for O=C([O-])CC(O)(CC(=O)[O-])C(=O)[O-].O=C([O-])CC(O)(CC(=O)[O-])C(=O)[O-].[Bi+3].[K+].[K+].[K+].[K+].[K+] [Bismuth Subcitrate Potassium] -2.69

Annotate the compound COc1ccc2c3c1O[C@H]1C[C@@H](O)C=C[C@@]31CCN(C)C2 [Galanthamine] with its measured z-score of subpopulation abundance. 0.1

Pending compound:
Determine its reported z-score of subpopulation abundance: CC1=CC[C@@](O)(C(C)C)CC1 0.26
